biological target: human MetAP2 enzyme (Homo sapiens); assay: MetAP2 enzyme assay, MetAP2 enzyme complexed with manganese ions; details: MetAP2 Mn pIC50, 10 μM MnCl2; -log(IC50), IC50 molar
Sequence (P50579 whole entry): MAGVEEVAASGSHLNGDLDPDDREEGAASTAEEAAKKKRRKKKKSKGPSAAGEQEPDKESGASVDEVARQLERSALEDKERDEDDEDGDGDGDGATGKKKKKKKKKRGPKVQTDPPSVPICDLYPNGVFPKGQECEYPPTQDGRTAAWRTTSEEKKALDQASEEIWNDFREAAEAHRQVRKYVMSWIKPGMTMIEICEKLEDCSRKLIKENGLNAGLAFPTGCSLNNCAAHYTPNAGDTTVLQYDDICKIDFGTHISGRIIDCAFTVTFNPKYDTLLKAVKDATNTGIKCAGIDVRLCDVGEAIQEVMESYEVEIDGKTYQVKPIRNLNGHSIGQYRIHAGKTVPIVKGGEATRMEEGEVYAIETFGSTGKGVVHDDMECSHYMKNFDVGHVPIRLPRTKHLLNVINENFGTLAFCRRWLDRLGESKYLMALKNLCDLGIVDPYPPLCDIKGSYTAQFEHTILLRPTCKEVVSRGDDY
For each record, write down the corresponding IC50.
Output spec: scalar in nM, unitless text.

# query: IC50 | item Cc1nc(N2CC[C@@H](O)C2)ncc1-n1c2ccc(F)cc2c2[nH]ncc21 | system: human MetAP2 enzyme (Homo sapiens)
12.6

# query: IC50 | item Nc1ncc(C(=O)O)cc1-n1c2ccc(F)cc2c2[nH]ncc21 | system: human MetAP2 enzyme (Homo sapiens)
63.1

# query: IC50 | item Cc1[nH]c(=O)ccc1-n1c2ccc(F)cc2c2[nH]ncc21 | system: human MetAP2 enzyme (Homo sapiens)
15.8

# query: IC50 | item OCc1nn(C(F)F)cc1-n1c2ccc(F)cc2c2[nH]ncc21 | system: human MetAP2 enzyme (Homo sapiens)
6.31

# query: IC50 | item Cc1c(-n2c3ccc(F)cc3c3[nH]ncc32)ccc2[nH]ncc12 | system: human MetAP2 enzyme (Homo sapiens)
10

# query: IC50 | item COCCNC(=O)c1cc(C)c(-n2c3ccc(F)cc3c3[nH]ncc32)cn1 | system: human MetAP2 enzyme (Homo sapiens)
63.1

# query: IC50 | item Cc1cc(N(C)CCO)ncc1-n1c2ccc(F)cc2c2[nH]ncc21 | system: human MetAP2 enzyme (Homo sapiens)
15.8

# query: IC50 | item Cc1nc(N2CCN(C)CC2)ccc1-n1c2ccc(F)cc2c2[nH]ncc21 | system: human MetAP2 enzyme (Homo sapiens)
12.6

# query: IC50 | item Cc1c(-n2c3ccc(F)cc3c3[nH]ncc32)ccc2c1cnn2C | system: human MetAP2 enzyme (Homo sapiens)
6.31

# query: IC50 | item Cc1ccc(-n2c3ccc(F)cc3c3[nH]ncc32)c(C)n1 | system: human MetAP2 enzyme (Homo sapiens)
7.94

# query: IC50 | item Cc1cc(C(=O)N2CCOCC2)ncc1-n1c2ccc(F)cc2c2[nH]ncc21 | system: human MetAP2 enzyme (Homo sapiens)
100
